Kindly state viability at 24 h, 0.3 µM for each of the entries shown.
Assay explanation: MTT assay, Hek293T non-leukemic control cells
Assay type: cell-based
Applied conditions: human, Hek293T cells (non-leukemic control cell line), 0.3 μM, read-out: Viability rate
Protocol: K562, Jurkat, Molt-4, and Nalm-6 cell lines were cultured in RPMI-1640 medium (ECM2001, Euroclone), Reh cell line was cultured in DMEM medium (LM-D1111-Biosera) Hek293T cell line was cultured in IMDM medium (AL070A - HiMedia) supplemented with 10% heat-inactivated fetal bovine serum (F7524-Merck & Co., USA,) penicillin and streptomycin (P4333-Sigma Aldrich). […] Subsequently, viability rate of the cells at each concentration, as percentage, was determined by following formula (1): […]
# number only, unit % dropped from output

(Q) Entry Cc1ccc(NC(=O)c2ccc(CN3CCN(C)CC3)cc2)cc1Nc1nccc(-c2cccnc2)n1 [imatinib, reference compound] : reported viability at 24 h, 0.3 µM = ?
(A) 83.4

(Q) Recorded viability at 24 h, 0.3 µM for Cc1ccnc(Nc2cc(NC(=O)c3ccc(CN4CCOCC4)cc3)ccc2C)c1 , please?
(A) 91.7

(Q) Using the record for COc1ccc(CN2CCN(Cc3ccc(C(=O)Nc4ccc(C)c(Nc5cc(C)ccn5)c4)cc3)CC2)c(OC)c1OC , report its viability at 24 h, 0.3 µM.
(A) 82.8

(Q) Sample COc1ccc(CN2CCN(Cc3ccc(C(=O)Nc4ccc(C)c(Nc5nccc(C)n5)c4)cc3)CC2)c(OC)c1OC — what was its viability at 24 h, 0.3 µM?
(A) 91.1

(Q) Give its viability at 24 h, 0.3 µM value. Item: Cc1ccnc(Nc2cc(NC(=O)c3ccc(CN4CCOCC4)cc3)ccc2C)n1
(A) 95.7

(Q) Item under review: Cc1ccc(NC(=O)c2ccc(CN3CCN(c4ncccn4)CC3)cc2)cc1Nc1cnccn1 . Reported viability at 24 h, 0.3 µM?
(A) 87.7

---

Assay explanation: MTT assay, Hek293T non-leukemic control cells
Type: cell-based
Applied conditions: human, Hek293T cells (non-leukemic control cell line), 50 μM, read-out: Viability rate
Readout: viability at 24 h, 50 µM (%)
Report the value in % with no unit label.

(Q) If you can, please state the reported viability at 24 h, 50 µM value of Cc1ccc(NC(=O)c2ccc(CN3CCN(C)CC3)cc2)cc1Nc1nccc(-c2cccnc2)n1 [imatinib, reference compound] .
(A) 48.5

(Q) // lookup viability at 24 h, 50 µM for COc1ccc(CN2CCN(Cc3ccc(C(=O)Nc4ccc(C)c(Nc5cc(C)ccn5)c4)cc3)CC2)c(OC)c1OC
(A) 79.2

(Q) Could you share which viability at 24 h, 50 µM value was measured for Cc1ccnc(Nc2cc(NC(=O)c3ccc(CN4CCOCC4)cc3)ccc2C)c1 ?
(A) 62.2

(Q) Item COc1ccc(CN2CCN(Cc3ccc(C(=O)Nc4ccc(C)c(Nc5nccc(C)n5)c4)cc3)CC2)c(OC)c1OC has what recorded viability at 24 h, 50 µM?
(A) 50.7

---

Assay explanation: MTT assay, Hek293T non-leukemic control cells
Format: cell-based
Applied conditions: human, Hek293T cells (non-leukemic control cell line), 10 μM, read-out: Viability rate
Exercise: for every item that follows, state its recorded viability at 24 h, 10 µM.
Report as a plain number; the unit % is understood.

(Q) Value lookup for viability at 24 h, 10 µM; key = Cc1ccnc(Nc2cc(NC(=O)c3ccc(CN4CCOCC4)cc3)ccc2C)c1 [Compound 9]
(A) 79.3

(Q) Data request, read-out viability at 24 h, 10 µM, for Cc1ccc(NC(=O)c2ccc(CN3CCN(c4ncccn4)CC3)cc2)cc1Nc1cnccn1 [Compound 7]
(A) 80.5

(Q) Name the reported viability at 24 h, 10 µM value associated with the compound COc1ccc(CN2CCN(Cc3ccc(C(=O)Nc4ccc(C)c(Nc5cc(C)ccn5)c4)cc3)CC2)c(OC)c1OC [Compound 10]
(A) 80.2

(Q) Item COc1ccc(CN2CCN(Cc3ccc(C(=O)Nc4ccc(C)c(Nc5nccc(C)n5)c4)cc3)CC2)c(OC)c1OC [Compound 6] has what recorded viability at 24 h, 10 µM?
(A) 78.2
